Recorded melting point for the following compounds

COMPOUND | melting point
O=C(O)COc1ccc(-c2c(Cl)c(CN3C(=O)CCC3=O)nc3sc4c(c23)CC[S+]([O-])C4)cc1 (stereo not shown) [Example 115] | 205 to 206 °C
O=C(O)COc1ccc(-c2c(Cl)c(CN3C(=O)CCC3=O)nc3sc4c(c23)CCS(=O)(=O)C4)cc1 [Example 116] | 260 to 261 °C
CC(C)(C)OC(=O)COc1ccc(-c2c(Cl)c(CN3C(=O)CCC3=O)nc3sc4c(c23)CC[S+]([O-])C4)cc1 (stereo not shown) [Example 113] | 175 to 176 °C
COc1ccc(-c2c(Cl)c(CN3C(=O)CCC3=O)nc3sc4c(c23)CC[S@+]([O-])C4)cc1 [Example 46] | 217 to 218.5 °C (dec.)
COc1ccc(-c2c(Cl)c(CN3C(=O)CCC3=O)nc3sc4c(c23)CC[S+]([O-])C4)cc1 (stereo not shown) [Example 22] | 268 to 269 °C
COc1ccc(-c2c(Cl)c(CN3C(=O)CCC3=O)nc3sc4c(F)c(OC)ccc4c23)cc1 [Example 60] | 215 to 216 °C
CCOC(=O)COc1ccc(-c2c(Cl)c(CN3C(=O)CCC3=O)nc3sc4c(c23)CCS(=O)(=O)C4)cc1 [Example 110] | 215 to 216 °C
